Kindly state t½ Ratio pH7.4/pH6.0 for each of the entries shown.
Target: T1, human C5 (human, UniProt P01031 19-1676)
T1 construct: native C5 purified from plasma (EMD) in the Biacore and Octet assays, C5 of normal human serum in the CDC and hemolysis assays; two chains (alpha and beta); also called hC5; complement factor 5
Assay: SPR (Biacore), mAb captured, dissociation of human C5 at pH7.4 vs pH6.0, 37°C
Simply state the number, no unit and no words.

Query: // lookup t½ Ratio pH7.4/pH6.0 for H4H12166P8 (antibody, human IgG4, V domains shown, histidine-mutated CDR variant of H4H12166P; human IgG4 (S108P)) VH: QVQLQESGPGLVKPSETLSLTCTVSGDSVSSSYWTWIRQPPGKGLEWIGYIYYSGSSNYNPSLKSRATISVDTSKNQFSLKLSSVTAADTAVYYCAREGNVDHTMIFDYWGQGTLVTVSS VL: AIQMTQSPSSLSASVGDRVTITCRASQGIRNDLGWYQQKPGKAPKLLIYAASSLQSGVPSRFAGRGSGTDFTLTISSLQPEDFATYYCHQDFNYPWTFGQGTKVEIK
Response: 36

Query: // lookup t½ Ratio pH7.4/pH6.0 for H4H12166P9 (antibody, human IgG4, V domains shown, histidine-mutated CDR variant of H4H12166P; human IgG4 (S108P)) VH: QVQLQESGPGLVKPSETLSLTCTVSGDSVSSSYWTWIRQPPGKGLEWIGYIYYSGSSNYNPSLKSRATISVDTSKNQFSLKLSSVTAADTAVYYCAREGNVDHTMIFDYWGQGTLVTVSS VL: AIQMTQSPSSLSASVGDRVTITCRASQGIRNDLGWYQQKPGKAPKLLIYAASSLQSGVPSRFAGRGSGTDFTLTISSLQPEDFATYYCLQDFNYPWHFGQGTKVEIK
Response: 28

Query: // lookup t½ Ratio pH7.4/pH6.0 for H4H12166P4 (antibody, human IgG4, V domains shown, histidine-mutated CDR variant of H4H12166P; human IgG4 (S108P)) VH: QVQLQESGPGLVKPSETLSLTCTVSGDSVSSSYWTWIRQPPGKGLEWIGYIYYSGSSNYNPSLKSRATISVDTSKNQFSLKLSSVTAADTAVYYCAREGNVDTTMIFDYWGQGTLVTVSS VL: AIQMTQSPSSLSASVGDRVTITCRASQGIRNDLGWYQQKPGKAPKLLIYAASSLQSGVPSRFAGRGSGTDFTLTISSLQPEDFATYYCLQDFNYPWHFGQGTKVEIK
Response: 7.6

The measurements presented in this section are drawn from patent US20170355757A1.
